Cited source: ChEMBL document CHEMBL3992514

assay: Cmax in Swiss Webster mouse at 30 mg/kg, po; format: ADME, organism-based; design: dose 30 mg/kg, route oral; settings: in vivo
measured attribute: Cmax (nM)
State just the number; it will be interpreted in nM.

If you can, please state the reported Cmax value of N=C(N)c1ccc(-c2ccc(-c3ccc(C(=N)N)cc3)o2)cc1 . 8

----------
experiment: Oral bioavailability in Sprague-Dawley albino rat at 1 mg/kg; format: ADME, organism-based; details: in vivo
measured attribute: bioavailability (%)
State just the number; it will be interpreted in %.

If you can, please state the reported bioavailability value of CO/N=[14C](/N)c1ccc(-c2ccc(-c3ccc(/[14C](N)=N\OC)cc3)o2)cc1 . 11
